System: HCT-15
Recorded GI50 for the following compounds
measuredAttribute: GI50 (µM)

>>> observed("COc1cc2c(cc1OCCCCCOc1cc3c(cc1OC)C(=O)N1CCC[C@H]1C(=O)N3)N=C[C@@H]1CCCN1C2=O")
3.08
>>> observed("CC(C)[C@@H]1NC(=O)[C@H]2N=C(O[C@@H]2C)[C@@H]2CCCN2C(=O)[C@H](Cc2ccccc2)NC(=O)[C@@H]2CSC(=N2)[C@@H](Cc2ccccc2)NC(=O)[C@@H]2CSC1=N2")
33.2
>>> observed("CC(C)c1ccc2c(c1)/C(=C1/Nc3ccccc3/C1=N/O)C(=O)N2")
3.98
>>> observed("CN(C)CCNc1ccc2ncnc3c2c1C(=O)c1ccccc1-3")
0.323
>>> observed("O=C(ON=c1c2ccccc2ccc2ccccc12)c1ccccc1")
29.7
>>> observed("COc1cc(S(=O)(=O)Nc2ccc(-c3csc(N4C(=O)C(C)SC4c4cccc(Oc5ccccc5)c4)n3)cc2)ccc1Cl (stereo not drawn)")
36.9

---

Test system: HCC 2998
Test: NCI tumour cell line growth inhibition, 48 h
Active and inactive are the calls of the source. Rule as the data show it: active = GI50 up to about 1.1 µM and inactive = higher.
Outcomes: active, inactive

>>> assignedcategory("COC(=O)N1CC(=O)C(C(=O)NC23CC4CC(CC(C4)C2)C3)C1 (stereo not given)")
"inactive"
>>> assignedcategory("Nc1nc(Cl)cc(NCC2(O)CC2)n1")
"inactive"
>>> assignedcategory("O=S(O)c1cc(Cl)cc(Cl)c1OCc1ccccc1")
"inactive"
>>> assignedcategory("Nc1ccc(Sc2c3ccccc3nc3ccccc23)cc1")
"inactive"
>>> assignedcategory("Cc1cn([C@@H]2O[C@H](CO[Si](C)(C)C(C)(C)C)[C@]3(O[C@H]3C(=O)NO)[C@H]2O[Si](C)(C)C(C)(C)C)c(=O)[nH]c1=O")
"inactive"
>>> assignedcategory("Cc1nc(-n2nc(-c3ccccc3)cc2-c2ccccc2)sc1C(=O)/C=C/c1ccc(Cl)cc1")
"inactive"
>>> assignedcategory("Cn1c(COC(=O)NC2CCCCC2)c(COC(=O)NC2CCCCC2)c2ccc3cc(Cl)c(Cl)cc3c21")
"inactive"
>>> assignedcategory("CC(=O)OCc1cc(=O)n2c([nH]c3ccccc32)c1C#N")
"inactive"
>>> assignedcategory("O=c1[nH]c2c(nc1NC13CC4CC(CC(C4)C1)C3)c(=O)oc1ccccc12")
"inactive"
>>> assignedcategory("Cc1ccc(S(=O)(=O)NC(=O)NCC(=O)NCC(=O)O)cc1")
"inactive"
>>> assignedcategory("COc1nc(C)nc2sc3c(c12)CCCC3")
"inactive"
>>> assignedcategory("CC1=CC(=O)[C@@H](O)[C@]2(C)[C@H]3[C@@]4(O)OC[C@@]35[C@@H](C[C@@H]12)OC(=O)C(OC(=O)CC1=CCCC1)[C@H]5[C@@H](C)[C@H]4O (stereo not given in full)")
"active"
>>> assignedcategory("CC(=O)OCC1OC(n2c(=S)n(-c3ccccc3)c(=O)c3cc(Br)ccc32)C(OC(C)=O)C(OC(C)=O)C1OC(C)=O (stereo not given)")
"inactive"
>>> assignedcategory("COc1ccc(-c2oc3cc(OC)c(OC)c(OC)c3c(=O)c2OC)cc1OC")
"inactive"
>>> assignedcategory("COc1cc2c(cc1OC)C1=Cc3cc(OC)c(OC)cc3C(C)N1C=C2 (stereo not given)")
"inactive"
>>> assignedcategory("COc1ccccc1C1CC(=O)CC(c2ccccc2OC)C12C(=O)NC(=S)NC2=O (stereo not given)")
"inactive"
>>> assignedcategory("CC1=NN(C(=O)CC(=O)NC(=O)/C=C\\c2ccccc2)C(=O)C1/N=N/c1ccc([N+](=O)[O-])cc1 (stereo not given)")
"inactive"
>>> assignedcategory("CNC1C(=O)C(C)C(O)(C(CC(C)C(O)/C=C/C=C/CNC(=O)C(C)(C)C(O)\\C(C)=C/C=C\\C=C\\Cc2cnc(C)o2)OC)C12C(=O)OC2C.CNC1C(=O)C(C)C(O)(C(CC(C)C(O)/C=C/C=C/CNC(=O)C(C)(C)C(O)\\C(C)=C/C=C\\C=C\\Cc2cnc(C)o2)OC)C12C(=O)OC2COC (stereo not given)")
"inactive"
>>> assignedcategory("COC(=O)CCC1CCc2c(OC)ccc(OC)c2C1=O (stereo not given)")
"inactive"
>>> assignedcategory("O=C(O)C[C@@H](Cl)[C@H](NC(=O)OCc1ccccc1)C(=O)O")
"inactive"
>>> assignedcategory("CN(CCc1ccccn1)c1ccc2c(c1)C(=O)c1ccccc1-2")
"inactive"
>>> assignedcategory("CCOC(=O)CC[C@@H](NC(=O)c1ccc(NCc2ccc3nc(OC)c(OC)nc3c2)cc1)C(=O)OCC")
"inactive"
>>> assignedcategory("N#CC(C#N)C1CN2CCC1CC2 (stereo not given)")
"inactive"
>>> assignedcategory("CCOC(OC1=C(C#N)CCC1)C(CC)[Se]c1ccccc1 (stereo not given)")
"inactive"
>>> assignedcategory("O=C1/C(=C/c2ccc([N+](=O)[O-])cc2)Oc2cc(O)ccc21")
"inactive"
>>> assignedcategory("O=C1CSc2cc([N+](=O)[O-])ccc2N1")
"inactive"
>>> assignedcategory("CN(C)CCCNC(=O)c1cc(NC(=O)c2cc(NC(=O)[C@@H]3C[C@H]3C(=O)Nc3cc(C(=O)Nc4cc(C(=O)NCCCN(C)C)n(C)c4)n(C)c3)cn2C)cn1C")
"inactive"
>>> assignedcategory("CC(C)C(=O)N1C(=O)O[C@@H](c2ccccc2)[C@H]1C")
"inactive"
>>> assignedcategory("N#CC12Cc3ccc4c(c3-c3cccc(c31)CCN2C(=O)c1ccccc1)OCO4 (stereo not given)")
"inactive"
>>> assignedcategory("CCN(CC)CCOC(=O)Cc1cccc2c(=O)cc(-c3ccccc3)oc12")
"inactive"
>>> assignedcategory("C=CC/C=C/C/C=C/CCCCCCCc1cccc(O)c1C(=O)O")
"inactive"
>>> assignedcategory("O=C(/C=C(\\S/C=C(/c1ccccc1)N1CCn2c(C(=O)c3ccccc3)c(C(=O)c3ccccc3)c(C(=O)c3ccccc3)c21)C(=O)c1ccccc1)c1ccccc1")
"inactive"
>>> assignedcategory("Nc1nc(SCc2ccc([N+](=O)[O-])cc2)nc2c1ncn2C1OC(CO)C(O)C1O (stereo not given)")
"inactive"
>>> assignedcategory("COc1ccc2nc3c(nc2c1)C(C)(C)C=C3c1ccc(Br)cc1")
"inactive"
>>> assignedcategory("O=c1/c(=C/c2ccc([N+](=O)[O-])o2)sc2n1[C@@H](c1ccc3c(c1)OCO3)C=C(c1cc(F)c(Cl)cc1Cl)N=2")
"inactive"
